The reported measurements were obtained from ChEMBL document CHEMBL3885861.

# Species: Rattus norvegicus
# experiment description: Open TG-GATES - Regimen: Daily Repeat
# Format: toxicity, organism-based, Sprague-Dawley
# Design: regimen Daily Repeat, gender Male, age 6 weeks
# condition description: in vivo, po, 0 mg/kg, 72 h, tissue Plasma, route gavage, dose level Control, time 3 day
recorded endpoint: TG

[ask] // query TG value for entry CC1=C(/C=C/C(C)=C/C=C/C(C)=C/CO)C(C)(C)CCC1
[reply] 94.8 mg/dL

[ask] Please report the recorded TG for CCCNC(=O)NS(=O)(=O)c1ccc(Cl)cc1 [CHLORPROPAMIDE] .
[reply] 107.2 mg/dL

[ask] For the compound shown here, CC(C)OC(=O)C(C)(C)Oc1ccc(C(=O)c2ccc(Cl)cc2)cc1 [FENOFIBRATE] , give the reported TG.
[reply] 86 mg/dL

[ask] Item under review: COC1=CC(=O)C[C@@H](C)[C@]12Oc1c(Cl)c(OC)cc(OC)c1C2=O . Reported TG?
[reply] 79 mg/dL

[ask] Any idea what its TG is? The compound is COc1ccc2[nH]c([S+]([O-])Cc3ncc(C)c(OC)c3C)nc2c1 (stereo not given)
[reply] 91.6 mg/dL
